# Tested on: L1210 leukemia ip in BDF1 mice, survival T/C
# Test Name: NCI In Vivo Anticancer Drug Screen. Data for tumor model L1210 Leukemia (intraperitoneal) in B6D2F1 (BDF1) mice
# Measurement Conditions: endpoint: mean survival time; dose: 50.0 mg/kg/injection; schedule: Q01DX001 (ip); vehicle: carboxymethylcellulose (CMC); higher = longer survival
Toxic doses and inconclusive results are not listed.
Consider the following compounds and their measured T/C readings.

Some compounds with known T/C results, for comparison:
Compound | Measured Metric | Reading
COc1ccc(CN2CCCN(Cc3ccc(OC)cc3OC)C2c2cc([N+](=O)[O-])ccc2O)c(OC)c1 | T/C | 107 % of control
CCOC(=O)NNC(=O)O | T/C | 108 % of control
O=C1N(Cl)C2C(N1Cl)N(Cl)C(=O)N2Cl (stereo unspecified) | T/C | 97 % of control
CN(N=O)c1ccc(/C=C/c2ccnc3ccccc23)cc1 | T/C | 98 % of control
Nc1ncnc2c(C3OC(CO)C(O)C3O)[nH]nc12 (stereo unspecified) | T/C | 109 % of control

Give L1210 leukemia ip in BDF1 mice, survival T/C T/C for the following compound: CSCCC1NC(=O)C(C(C)=Nc2ccccc2)=C1O (stereo unspecified)
101 % of control

Give L1210 leukemia ip in BDF1 mice, survival T/C T/C for the following compound: `CC(=O)Nc1ccc(Br)cc1`
92 % of control

Give L1210 leukemia ip in BDF1 mice, survival T/C T/C for the following compound: `Nc1ccc2c(c1)Cc1c(F)ccc(F)c1-2`
107 % of control

Give L1210 leukemia ip in BDF1 mice, survival T/C T/C for the following compound: CC1CN1P(=S)(N1CCCCC1)N1CC1C (stereo unspecified)
102 % of control

Give L1210 leukemia ip in BDF1 mice, survival T/C T/C for the following compound: `CSc1nnc2scnn12`
104 % of control

Give L1210 leukemia ip in BDF1 mice, survival T/C T/C for the following compound: CCOC(=O)C(C)Oc1cc(C)c(Cl)cc1Cl (stereo unspecified)
96 % of control
